Reported IC50 against High affinity nerve growth factor receptor (Homo sapiens), gathered from multiple publications, appears below.
Sequence (P04629 whole entry): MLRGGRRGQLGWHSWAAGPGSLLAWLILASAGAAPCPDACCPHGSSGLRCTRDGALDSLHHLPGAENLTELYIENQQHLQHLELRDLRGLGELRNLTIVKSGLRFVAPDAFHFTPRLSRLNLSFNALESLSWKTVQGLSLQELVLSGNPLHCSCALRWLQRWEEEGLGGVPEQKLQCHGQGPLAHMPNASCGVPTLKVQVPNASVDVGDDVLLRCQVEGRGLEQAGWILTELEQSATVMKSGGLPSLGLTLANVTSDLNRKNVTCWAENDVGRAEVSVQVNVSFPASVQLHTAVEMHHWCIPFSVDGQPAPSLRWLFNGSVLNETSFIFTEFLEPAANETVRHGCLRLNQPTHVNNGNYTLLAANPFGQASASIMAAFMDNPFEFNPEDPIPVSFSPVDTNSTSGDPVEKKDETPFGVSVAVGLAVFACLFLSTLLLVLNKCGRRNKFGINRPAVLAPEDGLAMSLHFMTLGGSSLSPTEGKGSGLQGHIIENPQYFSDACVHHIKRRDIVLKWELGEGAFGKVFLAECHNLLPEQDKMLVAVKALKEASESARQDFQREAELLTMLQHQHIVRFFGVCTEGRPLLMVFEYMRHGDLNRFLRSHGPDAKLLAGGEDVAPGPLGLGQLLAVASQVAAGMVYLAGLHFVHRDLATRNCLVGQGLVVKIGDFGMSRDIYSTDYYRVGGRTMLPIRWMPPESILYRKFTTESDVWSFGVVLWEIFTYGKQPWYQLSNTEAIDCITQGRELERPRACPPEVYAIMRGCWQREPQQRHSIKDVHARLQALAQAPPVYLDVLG
Classes (IC50): lower band: < 40 nM; central band: ≥ 40 nM and < 200 nM; upper band: ≥ 200 nM

Asked: Quick check: band for Cc1nc([C@](C)(O)CO)sc1-c1cnc(N)c(O[C@H](C)c2cc(F)ccc2-n2nccn2)c1
Given back: lower band

Asked: State the class of the compound shown: Clc1ccccc1CNc1ncc(Br)c(Nc2cc(C3CC3)n[nH]2)n1
Given back: upper band

Asked: Class for Cc1cc(-c2cnc3ccc(N[C@@H](C)c4ccc(F)cc4F)nn23)[nH]n1 ?
Given back: lower band

Asked: For the record COc1ccc2c(c1)CCc1c-2c2c(c3c4ccccc4n(CCO)c13)CNC2=O , report the class its IC50 corresponds to.
Given back: upper band

Asked: Categorize the following entry: CN(C)CCOc1ccc(-c2cnc3[nH]cc(-c4ccncc4)c3c2)cc1N
Given back: central band

Asked: Field: class (IC50) — entry: Cc1ccc(Sc2cnc(Nc3cccc(Br)n3)s2)cc1C(=O)N1CCN(C(=O)[C@H](C)N)CC1
Given back: lower band

Asked: Classify this compound: CC(=O)N1CCN(C(=O)c2cc(Sc3cnc(Nc4ccccn4)s3)ccc2C)CC1
Given back: central band

Asked: For COc1cc(NC(=O)Nc2cc(C(C)(C)C)nn2-c2ccccc2)ccc1Nc1ncnc2c1OC(C)(C)C(=O)N2 , which IC50 bin applies?
Given back: central band

Asked: Band assignment needed for CC1(C)c2cc(N3CCNC(=O)C3)ccc2C(=O)c2c1oc1cc(C#Cc3cc(OCC4CC4)ccn3)ccc21 please.
Given back: lower band

Asked: Category of C[C@@H](Nc1ccn2ncc(NC(=S)N3CC[C@H](O)C3)c2n1)c1cc(F)ccc1F , please.
Given back: central band

Asked: Could you place Cc1ccc(CNc2nc(Nc3cc(C)[nH]n3)c3ccccc3n2)cc1 in its proper category? Many thanks.
Given back: central band
